# TARGET_OR_SYSTEM: T1, mucin subtype 5AC expressed on BxPC3 cells (human, UniProt P98088 28-5654)
# T1 construct: whole, on cells; also called mucin 5AC; MUC5AC
# ASSAY_COMMENT: flow cytometry on BxPC3 cells expressing mucin subtype 5AC, 20 ug/mL antibody, Alexa Fluor 488 anti-human IgG

BINDER	binding result
humanized antibody 1 (antibody, V domains shown, Expressed transiently in HEK293 cells and detected with anti-human IgG; also called VH-1 combined with VL-1; mucin subtype 5AC-specific humanized antibody) VH: QVQLVESGGGVVQPGRSLRLSCSSSGFIFSNYGMSWVRQAPEKRLEWVATISNSGRYTYFPDSVKGRFTISRDNSKNTLFLQMDSLRPEDTGVYFCARHLDYANYDAMDYWGQGTPVTVSS VL: DIVMTQSPNSLAVSLGERATINCRASKSVTTSDFSYMHWYQQKPGQPPKLLIYLASNLESGVPDRFSGSGSGTDFTLTISSLQAEDVAVYYCQHSREFPWTFGQGTKLEIK	binds
humanized antibody 9 (antibody, V domains shown, Detected with anti-human IgG; also called VH-3 combined with VL-5; mucin subtype 5AC-specific humanized antibody) VH: QVQLQESGPGLVRPSQSLKLTCTVSGSTFSNYGMSWVRQTPEKRLEWIGTISNSGRYTYFPDSVKGRVTMLVDTSKNQFSLQMSSVTAADTAVYYCARHLDYANYDAMDYWGQGSLVTVSS VL: DIVMTQTPLSSPVTLGQPASISCRASKSVTTSDFSYMHWLQQRPGQPPRLLIYLASNLESGVPDRFSGSGAGTDFTLKISRVEAEDVGVYYCQHSREFPWTFGQGTKVEIK	binds
humanized antibody 10 (antibody, V domains shown, Detected with anti-human IgG; also called VH-4 combined with VL-7; mucin subtype 5AC-specific humanized antibody) VH: EVQLLESGGGLVQPGGSLRLSCAASGFTFSNYGMSWVRQAPGKGLEWVSTISNSGRYTYFPDSVKGRFTISRDNSKNTLYLQMNSLRAEDTAVYYCAKHLDYANYDAMDYWGQGTLVTVSS VL: DIVMTQTPLSLSVTPGQPASISCRASKSVTTSDFSYMHWYLQKPGQPPQLLIYLASNLESGVPDRFSGSGSGTDFTLKISRVEAEDVGVYYCQHSREFPWTFGQGTKVEIK	binds
